# assay method text: yeast display, Sf9 membrane polyspecificity reagent, FACS + sequencing; frameworks hold sequencing errors

- monomer sequence: "QVQLVESGGGLVQAGGSLRLSCAASGLTFGGNAMGWYRQAPGKERELVAAISWNGGRTYYADSVKGRFTISRDNAKNTVDLQMNSLKPEDTAVYYCNTPVFSKSSRKYYYWGQGTQVTVSS"
  polyreactivity (PSR sort gate): "high polyreactivity"
- monomer sequence: "QVQRVESGGGLVQAGGSLRLSCAASGSIFRGYAMGWYRQEPEKERELVAAISRRGGSTYYADSVKGRFTISRDNAKNTVYLQMNSLKPEDTAVYYCAIDGTGAGTYDYWGQGTQVTVSS"
  polyreactivity (PSR sort gate): "low polyreactivity"
- monomer sequence: "QVQLVESGGGLVQAGGSLRLSCAASGRIFRYYAMGWYRQAPGKERELVAAINSGGSTKYADSVKGRFTISRDNAKNTVYLQMNSLKPEDTAVYYCAAVYTPDSRYDYWGQGTQVTVSS"
  polyreactivity (PSR sort gate): "high polyreactivity"
- monomer sequence: "QVQLVESGGGLVQAGGSLRLSCAASGSILSWYAMGWYRQAPGKERELVAAITSGASTYYADSVKGRFTISRDNAKNTVYLQMNSLKPEDTAVYYCAAYPPSQRAEYDYWGQGTQVTVSS"
  polyreactivity (PSR sort gate): "low polyreactivity"
- monomer sequence: "QVQLVESGGGLVQAGGSLRLSCDASGIFVGYTLGWYRQAPRKERELVAAIRWTDGSTYYADSVKGRFTISRDNAKNTVYLQRNSLNPEDTAVYDCGADSNDPARYYYGDEFEDEYWGQGTQVTVSS"
  polyreactivity (PSR sort gate): "low polyreactivity"
- monomer sequence: "QVQLVESGGGLVQAGCSLRLSSAASGTIFGYYTMGRYRQAPGKEREIVAAISRSGGSTYYADSVKGRFTISRDNAHNTGYLQMNSLKPEHTAVYYCNADVYWEYDYWGQGTQVTVSS"
  polyreactivity (PSR sort gate): "low polyreactivity"
- monomer sequence: "QVQLVESGGGLVQAGGSLRLSCAASGFIFGWNAMGWYRQAPGKEREFVAAITSSGTSTYYADSVKGRFTISRDNAKNTVYLQMNSLKPEDTAVYYCAADVIFNWLAYSTEYDYWGQGTQVTVSS"
  polyreactivity (PSR sort gate): "low polyreactivity"
- monomer sequence: "QVQLVESGGGLVQAGGRLRLSCAASGSIFCVNAMGWSRQAPGKERELVATITGSSGITYYADSVKGRFTISRVNAKNTVYLQMNSVKPEDTAVYYCAAVLLKFAYNYNYWGQGTQVTVSS"
  polyreactivity (PSR sort gate): "low polyreactivity"
- monomer sequence: "QVQLVESGGGLVQAGGSLRLSCADSGSIIGINAMGWYRQAPGKERELVAANNGGGSTYYADSVKGRFTISRDNAKNSVYLQMNSLKPEDTAVYYCAAEWGTSWYDYWGQGTQVTVSS"
  polyreactivity (PSR sort gate): "low polyreactivity"
- monomer sequence: "QVQLVESGGGLVQAGGSLRLSCAASGRIIYNYAMGWYRQAPGKERELVAAISRGGSTNYADSVKGRFTISRDNAKNTVYLQMNSLKPEDTAVYYCAAWTYVWTRGGSPVTVQRYNYWGQGTQVTVSS"
  polyreactivity (PSR sort gate): "high polyreactivity"
- monomer sequence: "QVQLVESGGGLVQAGGSLRLSCAASGRIFAYYAMGWYRQAPGKERELVATISTGGGTYYADSVKGRFSISRDNAKNTVYLQMNSLKPEDTAVYYCAAAPYWYYGYYYWGQGTQVTVSS"
  polyreactivity (PSR sort gate): "high polyreactivity"

###

# assay method text: yeast display, Sf9 membrane polyspecificity reagent, FACS + sequencing; frameworks hold sequencing errors
measured attribute: polyreactivity (PSR sort gate)

- monomer sequence: "QVQLVESGGGLVQAGGSLRLSCAASGSNFLGNAMGWSIQAPGKERELVAAISSITGRTYYADSVKGRFTISRDNAKNTVYLQMNSLKPEDTAVYYCAAVQGANYYNEFDYWGQGTQVTVSS"
  experimental result: "high polyreactivity"
- monomer sequence: "QVQLVESGGGLVQAGGSLRLSCAASGGTFGRYAMGWYRQAPGKERELVASITTGGRTNYADSVKGRFTISRDNAKNTVYLQMNSLKPEDTAVYYCAKKRYGYPVPFYYWGQGTQVTVSS"
  experimental result: "high polyreactivity"
- monomer sequence: "QVQLVESGGGLVQAGGSLRLSCAASGITFRSYAMGWYRQAPGKERELVATISWSGGITYYADSVKGRFTISRDNAKNTVYLQMNSLKPEDTAFYYCAKASQSWGRVDYYYWGLGTQVTVSS"
  experimental result: "low polyreactivity"
- monomer sequence: "QVQLVESGGGLVQAGGSLRLSCAASGFTFTNYVMGWYRQAPGKETELVAAIRRSGDSTYYADSVKGRFTISRDNAKNTVYLQMNSLKPEATAVYYCNAVAYGRTYDYWGQGTQVTVSS"
  experimental result: "high polyreactivity"
- monomer sequence: "QVQLVESGGGLVQAGGSRRLTCAASGSIFFYNAMGWYRQATGKERELVAAISSATSTYYADSVKGRFTISRDNAMISVYVHMNSLTEEDTAVYYCAADFSDGYFWYDYWGQGTQVTVSS"
  experimental result: "high polyreactivity"
- monomer sequence: "QVQLVESGGGLVQAGGSLRLSCAASGITFVYYVMGWYRQAPGKERELVAGISSGGSTYYADSVKGRFTISRDNAKNTVYLQMNSLKPEDTAVYYCAAVSTPYYGHVKRYYYWGQGTQVTVSS"
  experimental result: "high polyreactivity"
- monomer sequence: "QVQLQESGGGLVQAGGSLRLSCAASGTISQEDWMGWYRQAPGKEREFVAPIGLGSNTNSADSLKGRFTISRDNAKNTVYLHMNSLKPEDTAVYYCAVCVWQYSDHVYRGQGTQVTVSS"
  experimental result: "low polyreactivity"
- monomer sequence: "QVQLVESGGGLVQAGGSLRLSCAASGFNFSYYAMGWYRQAPGKERELVAAINSGGVRTYYADSVKGRFTISRDNAKNTVYLQMNSLKPEDTAVYYCAARRHDSRYQYDYWGQGTQVTVSS"
  experimental result: "high polyreactivity"
- monomer sequence: "KVQLVESGSGFVQAGGSLGLSCAASGSIFRGYAMGWYRQAPGKERELVAAISWSGGTTYYADSVKGRLTISRDNEKNTFYLQMNSLKPEDTAVYYCAADTTVTITSKYNYWVQGTQVTVSS"
  experimental result: "low polyreactivity"
- monomer sequence: "QVQLVESGGGLVQAGGSLRLSCAASRRTFSYNTMGWYRQAPGTERELVARITWGGGSTNYADSVKGRFTISRDNAKNTVYLQMNSLKPEDTAVYYCAAGPSVPYGPQKVDYWGQGTQVTVSS"
  experimental result: "low polyreactivity"
- monomer sequence: "QVQLVESGGGLVQAGGSLRLSCAASGSTFAVNAMGWYRQAPGKERELVAVITGNGANTYYADSVKGRFTISRDNAKNTVYLQMNSLKPEDTAVYYCNARLFSQSHYYYWGQGTQVTVSS"
  experimental result: "high polyreactivity"

###

# assay method text: yeast display, Sf9 membrane polyspecificity reagent, FACS + sequencing; frameworks hold sequencing errors

- monomer sequence: "QVQLVESGGGLVQAGGSLRLSCAASGSIFELNAMGWSRQAPGKERELVAAITSSGSSTYYADSVKGRFTISRDNAKNTVYLQMNSLKPEDTAVYYCARDAFEPYDVGEYYYWGQGTQVTVSS"
  polyreactivity (PSR sort gate): "low polyreactivity"
- monomer sequence: "QVQLEESGGGLVQAGGSLRLSCAASGIIIRYYAMGWYRQAPRKERELVDSITARSGSTYYADSVKGRFSISRDYAKNTVYFQMNSLKPEDTAVYYCAKSGKPARYYYWGQGTQVTVSS"
  polyreactivity (PSR sort gate): "high polyreactivity"
- monomer sequence: "QVQLVESGGGLVQAGGSLRLSCAASGSTFDTNAMGWYRQAPGKELVAAISSAGSTYYADSVKGRFTISRDNAKNTVYLQMNSLKPVATAVYYCAAGNAESPYESLEDDYWGQGTQVTVSS"
  polyreactivity (PSR sort gate): "low polyreactivity"
- monomer sequence: "QVQLVESGGGLVQAGGSLRLSCAASGFTFSDNAMGWYRQAPGKEREFVATIDWSGGSTYYADSVKGRFTISRDNAKNTVYLQMNSLKPDDTAVYYCAATFRYSTSQYLQGYDYWGQGTQVTVSS"
  polyreactivity (PSR sort gate): "low polyreactivity"
- monomer sequence: "QVQLVESGGGLVQAGGSLRLSCAASGFTFYLYGMGGYRQAPGKERELVAAIRSGGSTNYADSVKGRFSISRDNAKNTVYLQMNSLKPEDTAVYYCATDIHSVHNNRDKPDYDYWGQGSQVTVSS"
  polyreactivity (PSR sort gate): "low polyreactivity"
- monomer sequence: "QVQLVESGGGLVQAGGSLRLSCAASGGISYRYAMGWYRQAPGKERELVARISRGTGTHYADSVKGRFTISRDNAKNTVYLQMNSLTPEDTAVYYCAAESYRGYYLSLNYWGQGTQVTVSS"
  polyreactivity (PSR sort gate): "high polyreactivity"
- monomer sequence: "QVQLVESGGGLVQAGGSLRLSCAASGITFANYAVGWYRQAPGKERELVAAISTSGGSTYYADSVKGRFTISRDNAKNTVDLQMNSLKPEDTAVYYCAARPYPWANFGYWGQGTQVTVSS"
  polyreactivity (PSR sort gate): "high polyreactivity"
- monomer sequence: "QVQLVESGGGLVQAGGSLRLSCAASGITFHGYAMGWDRQAPGKERELVAAISDSGSSTYYADSVKGRFTISRDNAKNTVYLQMNSLKPEHTAVYYCAAVSGFYDQYDYWGQGTQVTVSS"
  polyreactivity (PSR sort gate): "low polyreactivity"
- monomer sequence: "QVQLVESGGGLVQAGGSLRLSCAASGRTFYSYVMGWYRQSPGKERELVAAINNSGGGTYYADSVKGRFTISRDNAKNTVYLQMNSLKPEDTAVYYCNAVGGYWFDYWGQGTQVTVSS"
  polyreactivity (PSR sort gate): "high polyreactivity"
- monomer sequence: "HVQLVESGGGLVQAGGSLRLSCAASGSTFGQYTMGWYRQAPGKERELVATISSGGSTYYADSVKGRFTISRDNAKHTVYLQMNSLKPEDTAVYYCAARYWSIYDYWGQGTQVTVSS"
  polyreactivity (PSR sort gate): "low polyreactivity"
- monomer sequence: "QVQLVESGGGLVQAGGSLRLSCAASGRTFGYAMGWYRQAPGKERERVAAISSGGGRTYYADSVKGRFTISRDNAKNTVYLQMNSLKPEDTAVFYCNARHIFGASRRARFGYWGQGTQVTVSS"
  polyreactivity (PSR sort gate): "high polyreactivity"
- monomer sequence: "QVQHVESGGGLVQAGGSLRLSCAASGSTFTTNAMGWYRQAPGKERELVAAITASGGRTYYADSVKGRFTISRDNAKNTVYLQMNSLKPEDTAVYYCAADSGNEYDYWGQGTQVTVSS"
  polyreactivity (PSR sort gate): "low polyreactivity"
- monomer sequence: "QVQLVESGGGLVQAGGSLRLSCAASGSTFFPYAMGWYRPAPGKERELVAAIRWSGGRTYYADSVKGRFTISRDNAKNTVYLQMNSLKPEDTAVYYCAADKYLDYDYWGQGTQVTVSS"
  polyreactivity (PSR sort gate): "high polyreactivity"
- monomer sequence: "QVQLVESGGGIVQAGGSLRLSSAASGRIFDTNAMGWYRQAPGKERELVAAITGRGGGTYYADSVKGRFTISRDNAKNTVYLQMNSLKPEDTAVYYCNAFAPIYRHYSWGSGLDYWGQGTLVTVSS"
  polyreactivity (PSR sort gate): "high polyreactivity"
- monomer sequence: "QVQLVESGGGLVQAGGSLRLSCAASGRTFYANAMGWYRQAPGKERELVAAISTGGDGTYYADSVKGRFTISRDNAKKTVYLQMNSLKPEDTAVYYCAVRHRASGILYDYWGQGTQVTVSS"
  polyreactivity (PSR sort gate): "low polyreactivity"
- monomer sequence: "QVQLVESGVGLVQAGGSLPLSCAASGRTFRYYTMGSYRQAPGKERELVAAITQSGDSTYYADSVKGRFTISRDNAKNTFYLQMNSLKPEDTAVYYCNKAWRRRGLYDYWGQGTQVTVSS"
  polyreactivity (PSR sort gate): "high polyreactivity"
- monomer sequence: "QVQLVESGGGLVQAGGSLRLSCDASGITFWNALGWYRQAPGKERELVAAITSSGGSTYYADSVKGRFTISRDNAKNTVDLQMNSLKPEDTAVYYCAADYGRTRYDMDYWGQGTQVTVSS"
  polyreactivity (PSR sort gate): "low polyreactivity"
- monomer sequence: "QVQLVESGGGLVQAGGSLRLSCAASGFIFSHNAMGWYRQAPGKERELVAAIDYIDGSTYYADSVKGRFTISRDNAKNTVYLQMNSLKPEDTAVYYCAADGLFYWWHYGYWGQGTQVTVSS"
  polyreactivity (PSR sort gate): "low polyreactivity"
- monomer sequence: "QVQLVESGGGLVQAGGSLRLSCAASGSNFAAYTMGWYRQAPGKERELVAAISVSTVSTYYADSVKGRFTISRDNAKNTVYLQMYSLTPEDTAVYYCIADATDSYPEKYEHDSWGQGTQVTVSS"
  polyreactivity (PSR sort gate): "low polyreactivity"
- monomer sequence: "QVQLVESGGGLVQAGGSLRLSCAASGSTFWYNAMGWYRQAPGKERELVAAISRSGATTYYADSVKGRFTISRDNAKNTVYLQMNSLKPEDTAVYYCNAVISPSSYVRNSDYWGQGTQVTVSS"
  polyreactivity (PSR sort gate): "low polyreactivity"
- monomer sequence: "QVQHVESGGGLVQAGGSLRLSCDASGRIFLYKAMGWYRQAPGKERELVAAIDGGGTTYADSVKGRFTISRDNAKNTVYLQRNSLKPEDTAVYYCAADWYYQYSIYRYGYWGQGTQVTVSS"
  polyreactivity (PSR sort gate): "low polyreactivity"

The origin of these recorded values is the nanobody polyreactivity screen of Harvey et al. (2022).
